- Assayed System: human placental GnRH receptor (human) (UniProt P30968)
- Measurement Protocol: competitive radioreceptor assay on human term placental membranes, radiolabeled Buserelin as competitor, double reciprocal plot
Non-standard residues stand in square brackets, D forms with d. pGlu = O=C1CC[C@@H](C(=O)O)N1; azaGly = NNC(=O)O
Readout Name: pKd
In plain terms, pKd is the concentration in mol/L turned into minus its base-10 logarithm.

Fill in the blank: the reported pKd of [pGlu]HWSH[dR]WYP[azaGly]-NH2 (also: also used radioiodinated as label) [D-Arg(6)-chicken II GnRH-aza-Gly(10)-amide] is ____.
6.76
